The entries below come with measured inhibition values attached.
TESTED_SYSTEM: Hepatocyte growth factor receptor (Homo sapiens) (UniProt P08581);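 note: reported values are means of MET inhibition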
Sequence (P08581 whole entry): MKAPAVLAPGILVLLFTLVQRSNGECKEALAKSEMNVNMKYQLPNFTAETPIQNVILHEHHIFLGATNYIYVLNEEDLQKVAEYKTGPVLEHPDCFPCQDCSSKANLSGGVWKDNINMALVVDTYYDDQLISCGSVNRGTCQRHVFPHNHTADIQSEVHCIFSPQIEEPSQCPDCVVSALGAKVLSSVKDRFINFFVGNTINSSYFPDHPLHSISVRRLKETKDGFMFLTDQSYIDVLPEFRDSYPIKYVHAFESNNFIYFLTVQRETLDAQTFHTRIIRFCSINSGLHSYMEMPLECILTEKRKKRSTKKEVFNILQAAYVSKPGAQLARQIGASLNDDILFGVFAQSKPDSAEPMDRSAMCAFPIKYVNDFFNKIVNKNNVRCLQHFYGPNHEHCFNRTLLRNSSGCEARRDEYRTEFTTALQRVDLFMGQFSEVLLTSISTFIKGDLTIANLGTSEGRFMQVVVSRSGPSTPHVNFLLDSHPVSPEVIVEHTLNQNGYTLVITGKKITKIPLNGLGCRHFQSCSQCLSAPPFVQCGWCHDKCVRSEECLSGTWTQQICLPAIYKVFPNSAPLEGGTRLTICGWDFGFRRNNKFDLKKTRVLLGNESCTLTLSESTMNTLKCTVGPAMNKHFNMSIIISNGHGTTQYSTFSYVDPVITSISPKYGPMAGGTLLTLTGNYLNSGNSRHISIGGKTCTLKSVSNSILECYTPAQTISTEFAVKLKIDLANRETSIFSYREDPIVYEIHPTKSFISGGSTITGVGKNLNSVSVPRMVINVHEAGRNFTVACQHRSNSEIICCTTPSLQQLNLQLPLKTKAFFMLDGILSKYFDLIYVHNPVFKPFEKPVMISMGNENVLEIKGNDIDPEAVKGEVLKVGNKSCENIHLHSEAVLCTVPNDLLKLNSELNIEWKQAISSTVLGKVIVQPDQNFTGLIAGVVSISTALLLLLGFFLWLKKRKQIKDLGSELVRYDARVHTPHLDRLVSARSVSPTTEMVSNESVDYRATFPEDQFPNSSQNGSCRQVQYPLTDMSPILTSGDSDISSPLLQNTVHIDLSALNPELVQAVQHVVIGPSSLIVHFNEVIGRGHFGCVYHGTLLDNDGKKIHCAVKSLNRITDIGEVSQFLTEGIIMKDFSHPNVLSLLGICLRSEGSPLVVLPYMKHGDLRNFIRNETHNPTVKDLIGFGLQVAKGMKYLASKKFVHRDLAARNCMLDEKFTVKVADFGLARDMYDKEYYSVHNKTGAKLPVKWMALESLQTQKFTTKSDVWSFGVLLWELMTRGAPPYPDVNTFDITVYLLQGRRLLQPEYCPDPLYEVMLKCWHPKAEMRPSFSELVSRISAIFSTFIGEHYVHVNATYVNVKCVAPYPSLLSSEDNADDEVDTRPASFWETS
ASSAY_CONDITIONS: at 0.1 µM
Number in %, nothing else.

Below, each entry is followed by its recorded inhibition result.
[[record]]
structure = "CNC(=O)c1cncc(/C=C/c2ccccc2C)c1"
units = "%"
result = 9.7

[[record]]
structure = "Fc1cccc(COc2ccc(Nc3ncncc3C#Cc3ccccc3)cc2Cl)c1"
units = "%"
result = 8.24


Okay, now this compound:
## Task Please list inhibition recorded for the compound CN1CCC(n2cnc(-c3ccc(F)cc3)c2-c2ccnc(NCCO)n2)CC1
## Result 0.32

* * *

Tested on: Tyrosine-protein kinase ABL1 (Homo sapiens), P00519 [H396P]
ASSAY_CONDITIONS: at 0.1 µM
Would you please tag the item Y when its inhibition is 4% or above, and N when it is below?

[[record]]
compound = "CC1=C(C(=O)Nc2ccc3[nH]ncc3c2)C(c2ccc(F)cc2)N=C(c2ccc(C(F)(F)F)nc2)N1 (stereo not given)"
assigned_category = "N"

[[record]]
compound = "CN1CCC(n2cnc(-c3ccc(F)cc3)c2-c2ccnc(NCCO)n2)CC1"
assigned_category = "N"

[[record]]
compound = "COc1cccc(Nc2nccc(-c3cnn4ncccc34)n2)c1"
assigned_category = "Y"

[[record]]
compound = "CC(C)c1ccc(-c2cc(-c3c[nH]nc3-c3ccccn3)ccn2)cc1"
assigned_category = "Y"


## Task Please indicate if the recorded inhibition for CCOc1ccc2c(-c3ccnc(Nc4cc(OC)cc(C(F)(F)F)c4)n3)cnn2n1 meets or exceeds 4%.
## Result N

* * *

Some compounds, each annotated with its measured inhibition.
TESTED_SYSTEM: SRSF protein kinase 1 (Homo sapiens) (UniProt Q96SB4);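 note: reported values are mean percent inhibition of SRPK1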
Sequence (Q96SB4 whole entry): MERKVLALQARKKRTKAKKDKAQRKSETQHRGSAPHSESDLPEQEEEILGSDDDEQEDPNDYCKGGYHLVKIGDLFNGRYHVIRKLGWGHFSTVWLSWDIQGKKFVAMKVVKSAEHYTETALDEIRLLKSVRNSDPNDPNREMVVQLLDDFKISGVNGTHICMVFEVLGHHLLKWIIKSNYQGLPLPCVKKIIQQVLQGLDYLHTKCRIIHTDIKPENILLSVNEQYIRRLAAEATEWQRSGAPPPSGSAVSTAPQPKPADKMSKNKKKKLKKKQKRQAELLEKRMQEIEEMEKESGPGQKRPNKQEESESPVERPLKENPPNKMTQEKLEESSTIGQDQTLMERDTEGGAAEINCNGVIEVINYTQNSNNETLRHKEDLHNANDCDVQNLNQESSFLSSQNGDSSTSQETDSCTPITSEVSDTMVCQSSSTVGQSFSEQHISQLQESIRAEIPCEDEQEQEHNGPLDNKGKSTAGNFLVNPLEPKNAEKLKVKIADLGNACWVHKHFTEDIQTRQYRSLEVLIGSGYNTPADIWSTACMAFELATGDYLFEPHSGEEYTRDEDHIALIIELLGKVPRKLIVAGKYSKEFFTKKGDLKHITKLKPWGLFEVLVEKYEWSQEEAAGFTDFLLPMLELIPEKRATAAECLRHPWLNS
ASSAY_CONDITIONS: at 1 µM
The figure you give is taken to be in %; do not add the unit.

Here's what some known entries look like.
[[record]]
compound = "COC(=O)Nc1nc2cc(Oc3ccc(NC(=O)Nc4ccccc4)cc3)ccc2[nH]1"
tested_system = "SRSF protein kinase 1 (Homo sapiens) (UniProt Q96SB4)"
units = "%"
result = -0.94

[[record]]
compound = "NS(=O)(=O)c1ccc(N/N=C2\\C(=O)Nc3ccc(C(=O)NCc4ccncc4)cc32)cc1"
tested_system = "SRSF protein kinase 1 (Homo sapiens) (UniProt Q96SB4)"
units = "%"
result = 2.06

[[record]]
compound = "COC(=O)Nc1nc2ccc(Oc3ccc(NC(=O)Nc4cc(C(F)(F)F)ccc4F)cc3)cc2s1"
tested_system = "SRSF protein kinase 1 (Homo sapiens) (UniProt Q96SB4)"
units = "%"
result = -2.01

[[record]]
compound = "CCCNc1cccc(-n2ncc3c(N/N=C/c4ccncc4)ncnc32)c1"
tested_system = "SRSF protein kinase 1 (Homo sapiens) (UniProt Q96SB4)"
units = "%"
result = 3.51

[[record]]
compound = "N#Cc1ccc2c(-c3ccnc(NC4CC4)n3)c(-c3ccc(F)cc3)nn2c1"
tested_system = "SRSF protein kinase 1 (Homo sapiens) (UniProt Q96SB4)"
units = "%"
result = -2.4


## Task Return inhibition for the following compound: O=C(O[C@H]1CN[C@H](C#Cc2cc3ncnc(Nc4ccc5c(ccn5Cc5cc(F)ccc5F)c4)c3s2)C1)N1CCOCC1
## Result -4.63

## Task Assign inhibition to the following record: OCCCNc1nccc(-c2c(-c3ccc(F)cc3)nn3cc(C(F)(F)F)ccc23)n1
## Result -3.43

## Task Supply recorded inhibition for COc1cc(Nc2ncc(-c3ccccc3)o2)cc(OC)c1 here.
## Result -2

## Task Report measured inhibition; entry is CS(=O)(=O)CCNCc1ccoc1-c1ccc2ncnc(Nc3ccc(OCc4ccccc4)cc3)c2c1
## Result -1.85

## Task Supply recorded inhibition for COc1cc2c(cc1Nc1nc(Nc3cccc(F)c3C(N)=O)c3cc[nH]c3n1)N(C(=O)CN1CCN(C(C)C)CC1)CC2 here.
## Result -1.66

## Task Report inhibition, nothing else, for this compound: NS(=O)(=O)c1ccc(N/N=C2\C(=O)Nc3cccc(CCc4ccncc4)c32)cc1
## Result -1

Each recorded value in this set is attributed to ChEMBL document CHEMBL1961873.
